ASSAY TARGET: recombinant CDK4/Cyclin D1 (Homo sapiens)
Construct: purchased Life Technologies PV4204
EXPERIMENT SUMMARY: Biochemical kinase inhibition test, CDK4/Cyclin D1 (32P-ATP, retinoblastoma protein substrate)
MEASUREMENT SETUP: three-fold serial dilution from 10 μM; 10 μM ATP; read-out: CDK4/D1 (nM), enzyme inhibitory activity IC50
PROPERTY MEASURED: IC50

Which IC50 reading was recorded for the compound Cc1nc(Nc2ncc3ccc4cnn(C(C)C)c4c3n2)ccc1N1CCOCC1 ? 1 to 5 nM

Again, but for CC(C)n1ncc2ccc3cnc(Nc4cc(F)c(N5CCNCC5)cn4)nc3c21 5 to 10 nM

Again, but for Cc1cc(Nc2ncc3ccc4cnn(C(C)C)c4c3n2)ncc1N1CCS(=O)(=O)CC1 20 to 50 nM

Again, but for CC(C)n1ncc2ccc3cnc(Nc4ccc(N5CCC(N(C)C)CC5)cn4)nc3c21 20 to 50 nM

Again, but for CC(C)n1ncc2c(C#N)cc3cnc(Nc4cc(F)c(N5CCNCC5)cn4)nc3c21.Cl 20 to 50 nM

Again, but for Cc1cc(Nc2ncc3ccc4cnn(C5CCCC5)c4c3n2)ncc1N1CCOCC1 10 to 20 nM

====

ASSAY TARGET: recombinant CDK4/Cyclin D1 (Homo sapiens, UniProt P11802)
Construct: purchased Life Technologies PV4204
Sequence (P11802 whole entry): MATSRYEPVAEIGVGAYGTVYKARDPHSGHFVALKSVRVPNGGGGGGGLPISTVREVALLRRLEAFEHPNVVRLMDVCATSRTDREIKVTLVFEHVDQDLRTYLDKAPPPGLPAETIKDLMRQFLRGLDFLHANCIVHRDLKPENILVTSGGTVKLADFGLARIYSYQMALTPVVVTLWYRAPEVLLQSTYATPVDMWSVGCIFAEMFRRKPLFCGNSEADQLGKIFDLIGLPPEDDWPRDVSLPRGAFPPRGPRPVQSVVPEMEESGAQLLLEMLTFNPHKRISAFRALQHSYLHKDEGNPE
Sequence (P24385 whole entry partner): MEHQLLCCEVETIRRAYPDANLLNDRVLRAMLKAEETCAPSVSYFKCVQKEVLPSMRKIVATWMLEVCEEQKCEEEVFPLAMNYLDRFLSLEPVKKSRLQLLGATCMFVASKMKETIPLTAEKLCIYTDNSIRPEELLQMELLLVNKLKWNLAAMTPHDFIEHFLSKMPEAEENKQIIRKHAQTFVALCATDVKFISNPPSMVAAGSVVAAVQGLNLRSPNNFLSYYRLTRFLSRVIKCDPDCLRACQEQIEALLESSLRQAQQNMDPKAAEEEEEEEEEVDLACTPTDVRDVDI
EXPERIMENT SUMMARY: Biochemical kinase inhibition test, CDK4/Cyclin D1 (32P-ATP, retinoblastoma protein substrate)
MEASUREMENT SETUP: three-fold serial dilution from 10 μM; 10 μM ATP; read-out: CDK4/D1 (nM), enzyme inhibitory activity IC50
PROPERTY MEASURED: IC50

API: value(readout=IC50, system=recombinant CDK4/Cyclin D1 (Homo sapiens, UniProt P11802)) for record Cc1cc(Nc2ncc3ccc4cnn(C5CCCC5)c4c3n2)ncc1N1CCNCC1 10 to 20 nM

Others:
API: value(readout=IC50, system=recombinant CDK4/Cyclin D1 (Homo sapiens, UniProt P11802)) for record COc1cc(OC)cc(-c2cc3cnc(Nc4ccc(N5CCNCC5)cn4)nc3c3c2cnn3C(C)C)c1.Cl 5 to 10 nM

Again, but for CCn1ncc2ccc3cnc(Nc4cc(C)c(N5CCOCC5)cn4)nc3c21 10 to 20 nM

Again, but for CC(C)n1ncc2ccc3cnc(Nc4ccc(N5CCCNCC5)cn4)nc3c21 10 to 20 nM

Again, but for CC(C)n1ncc2ccc3cnc(Nc4ccc(N5CCN[C@@H](C)C5)cn4)nc3c21 5 to 10 nM

Again, but for CN1CCN(c2ccc(Nc3ncc4ccc5cnn(C6CCCC6)c5c4n3)nc2)CC1 1 to 5 nM

Again, but for CC(C)n1ncc2ccc3cnc(Nc4ccc(N5CC6(CCNCC6)C5)cn4)nc3c21 1 to 5 nM

Again, but for Cc1cc(Nc2ncc3ccc4cnn(C5CC5)c4c3n2)ncc1N1CCN(C)CC1 20 to 50 nM

====

ASSAY TARGET: recombinant CDK4/Cyclin D1 (Homo sapiens)
Construct: purchased Life Technologies PV4204
EXPERIMENT SUMMARY: Biochemical kinase inhibition test, CDK4/Cyclin D1 (32P-ATP, retinoblastoma protein substrate)
MEASUREMENT SETUP: three-fold serial dilution from 10 μM; 10 μM ATP; read-out: CDK4/D1 (nM), enzyme inhibitory activity IC50
PROPERTY MEASURED: IC50

Recorded results for 2 compounds are shown here.
Which IC50 reading was recorded for the compound CC(C)n1ncc2ccc3cnc(N4CCC[C@@H]4c4cc(F)ccc4F)nc3c21 ? 50 to 100 nM

Again, but for CC(C)n1ncc2ccc3cnc(Nc4ccc(N5CCNCC5)c(F)n4)nc3c21 1 to 5 nM

Others:
Which IC50 reading was recorded for the compound COc1ccc2cc(Nc3ncc4ccc5cnn(C(C)C)c5c4n3)ccc2n1 ? 20 to 50 nM
